Test system: Staphylococcus epidermidis
Experiment: Antibacterial activity against penicillin-resistant Staphylococcus epidermidis clinical isolate by broth microdilution method
Assay type: functional
Below is a list of entries, each paired with its recorded MIC value.
Please state the figure in µg/mL; there is no need to write the unit.

Some entries whose results are on file:
CC[C@H]1OC(=O)[C@H](C)[C@@H](O)[C@H](C)[C@@H](O[C@@H]2O[C@H](C)C[C@H](N(C)C)[C@H]2OC(=O)Nc2ccccc2)[C@](C)(O)C[C@@H](C)CN(C)[C@H](C)[C@H]2OC(=O)O[C@@]21C :: 32
CC[C@H]1OC(=O)[C@H](C)[C@@H](OC(=O)Nc2cccc(Cl)c2)[C@H](C)[C@@H](O[C@@H]2O[C@H](C)C[C@H](N(C)C)[C@H]2O)[C@](C)(O)C[C@@H](C)CN(C)[C@H](C)[C@H]2OC(=O)O[C@@]21C :: 0.5
CC[C@H]1OC(=O)[C@H](C)[C@@H](OC(=O)Nc2cccc(OC)c2)[C@H](C)[C@@H](O[C@@H]2O[C@H](C)C[C@H](N(C)C)[C@H]2O)[C@](C)(O)C[C@@H](C)CN(C)[C@H](C)[C@H]2OC(=O)O[C@@]21C :: 32
CC[C@H]1OC(=O)[C@H](C)[C@@H](O[C@H]2C[C@@](C)(OC)[C@@H](O)[C@H](C)O2)[C@H](C)[C@@H](O[C@@H]2O[C@H](C)C[C@H](N(C)C)[C@H]2O)[C@](C)(OC)C[C@@H](C)C(=O)[C@H](C)[C@@H](O)[C@]1(C)O [CLARITHROMYCIN] :: 0.25

Reported MIC of CC[C@H]1OC(=O)[C@H](C)[C@@H](O)[C@H](C)[C@@H](O[C@@H]2O[C@H](C)C[C@H](N(C)C)[C@H]2OC(=O)Nc2cccc(F)c2)[C@](C)(O)C[C@@H](C)CN(C)[C@H](C)[C@H]2OC(=O)O[C@@]21C : 64

Per the record, CCCCCNC(=O)O[C@H]1[C@H](C)[C@@H](O[C@@H]2O[C@H](C)C[C@H](N(C)C)[C@H]2OC(C)=O)[C@](C)(O)C[C@@H](C)CN(C)[C@H](C)[C@H]2OC(=O)O[C@]2(C)[C@@H](CC)OC(=O)[C@@H]1C has MIC of 32

// sample CC[C@H]1OC(=O)[C@H](C)[C@@H](OC(=O)Nc2ccc(C(F)(F)F)cc2)[C@H](C)[C@@H](O[C@@H]2O[C@H](C)C[C@H](N(C)C)[C@H]2O)[C@](C)(O)C[C@@H](C)CN(C)[C@H](C)[C@H]2OC(=O)O[C@@]21C , its MIC was 0.25

The molecule listed as CC[C@H]1OC(=O)[C@H](C)[C@@H](OC(=O)NCc2ccccc2)[C@H](C)[C@@H](O[C@@H]2O[C@H](C)C[C@H](N(C)C)[C@H]2OC(C)=O)[C@](C)(O)C[C@@H](C)CN(C)[C@H](C)[C@H]2OC(=O)O[C@@]21C shows MIC equal to 64

----------
System: Streptococcus pyogenes
Assay: Antibacterial activity against erythromycin-resistant Streptococcus pyogenes R1 clinical isolate by broth microdilution method
Assay type: functional
quantity_measured: MIC (µg/mL)
Answer in µg/mL, number only, no unit symbol.

Some solved cases for reference:
CC[C@H]1OC(=O)[C@H](C)[C@@H](O)[C@H](C)[C@@H](O[C@@H]2O[C@H](C)C[C@H](N(C)C)[C@H]2OC(=O)Nc2ccccc2)[C@](C)(O)C[C@@H](C)CN(C)[C@H](C)[C@H]2OC(=O)O[C@@]21C :: 128
CCCCc1ccc(NC(=O)O[C@H]2[C@H](O[C@@H]3[C@@H](C)[C@H](O)[C@@H](C)C(=O)O[C@H](CC)[C@@]4(C)OC(=O)O[C@@H]4[C@@H](C)N(C)C[C@H](C)C[C@@]3(C)O)O[C@H](C)C[C@@H]2N(C)C)cc1 :: 64
CC[C@H]1OC(=O)[C@H](C)[C@@H](O)[C@H](C)[C@@H](O[C@@H]2O[C@H](C)C[C@H](N(C)C)[C@H]2OC(=O)Nc2ccccc2C)[C@](C)(O)C[C@@H](C)CN(C)[C@H](C)[C@H]2OC(=O)O[C@@]21C :: 64
CC[C@H]1OC(=O)[C@H](C)[C@@H](OC(=O)Nc2ccccc2Cl)[C@H](C)[C@@H](O[C@@H]2O[C@H](C)C[C@H](N(C)C)[C@H]2O)[C@](C)(O)C[C@@H](C)CN(C)[C@H](C)[C@H]2OC(=O)O[C@@]21C :: 128
CC[C@H]1OC(=O)[C@H](C)[C@@H](OC(=O)Nc2ccc(F)cc2)[C@H](C)[C@@H](O[C@@H]2O[C@H](C)C[C@H](N(C)C)[C@H]2O)[C@](C)(O)C[C@@H](C)CN(C)[C@H](C)[C@H]2OC(=O)O[C@@]21C :: 64

Recorded MIC (compound CC[C@H]1OC(=O)[C@H](C)[C@@H](OC(=O)Nc2ccccc2F)[C@H](C)[C@@H](O[C@@H]2O[C@H](C)C[C@H](N(C)C)[C@H]2OC(C)=O)[C@](C)(O)C[C@@H](C)CN(C)[C@H](C)[C@H]2OC(=O)O[C@@]21C ): 128

For this compound ( CC[C@H]1OC(=O)[C@H](C)[C@@H](O)[C@H](C)[C@@H](O[C@@H]2O[C@H](C)C[C@H](N(C)C)[C@H]2OC(=O)Nc2ccc(F)cc2)[C@](C)(O)C[C@@H](C)CN(C)[C@H](C)[C@H]2OC(=O)O[C@@]21C ), measured MIC is 64

Consider CC[C@H]1OC(=O)[C@H](C)[C@@H](OC(=O)Nc2ccccc2F)[C@H](C)[C@@H](O[C@@H]2O[C@H](C)C[C@H](N(C)C)[C@H]2O)[C@](C)(O)C[C@@H](C)CN(C)[C@H](C)[C@H]2OC(=O)O[C@@]21C . Its measured MIC is 64
